FYI, the data here is from the supplement of paper PMC9588766.

- System: PDC-DUC18828
- ASSAY_NOTES: cell viability of compound + 1 nM pemigatinib relative to pemigatinib-only (DMSO) wells (fraction); higher = less growth inhibition
- EXPERIMENTAL_SETUP: first compound 1 µM; pemigatinib concentration 1 nM; 72 h
Structures can show the parent of a compound that is named as a salt. In all, about 1,900 compounds were measured (“cell viability of compound + 1 nM pemigatinib relative to pemigatinib-only (DMSO) wells”: median about 0.95 nM, lowest 2% from about 0.22 nM on). What follows is part of a selection rich in the lowest values, with near analogues and random picks from the rest.
Doc: threshold 0.9 (exclusive). Items with cell viability beneath it return Yes; others return No.

# strict comparison: is reported cell viability < 0.9? input = CCC1C/C(=C\c2cccnc2)C(=O)/C(=C/c2cccnc2)C1 (centres undefined) + CCN1C(=O)N(c2c(F)c(OC)cc(OC)c2F)Cc2cnc3[nH]c(CN4CCOCC4)cc3c21
Yes

# strict comparison: is reported cell viability < 0.9? input = Cc1ccc2c(c1)C(=O)C1(O)CCN(c3ccccc3)C1=N2 (single isomer, unassigned; (-)) [(-)-Blebbistatin] + CCN1C(=O)N(c2c(F)c(OC)cc(OC)c2F)Cc2cnc3[nH]c(CN4CCOCC4)cc3c21
No

# strict comparison: is reported cell viability < 0.9? input = Cc1ncc(CCCN(C)C)cc1Nc1ncc2c(n1)-c1ccc(C(F)(F)F)cc1NC(=S)C2 + CCN1C(=O)N(c2c(F)c(OC)cc(OC)c2F)Cc2cnc3[nH]c(CN4CCOCC4)cc3c21
Yes

# strict comparison: is reported cell viability < 0.9? input = O=C(CCCCCCC(=O)Nc1ccc([C@H]2O[C@@H](CSc3nc(-c4ccccc4)c(-c4ccccc4)o3)C[C@@H](c3ccc(CO)cc3)O2)cc1)NO [Tubacin] + CCN1C(=O)N(c2c(F)c(OC)cc(OC)c2F)Cc2cnc3[nH]c(CN4CCOCC4)cc3c21
No

# strict comparison: is reported cell viability < 0.9? input = CN(C)Cc1cccc(N=C(c2ccccc2)c2c(O)[nH]c3cc(C(=O)N(C)C)ccc23)c1 + CCN1C(=O)N(c2c(F)c(OC)cc(OC)c2F)Cc2cnc3[nH]c(CN4CCOCC4)cc3c21
No

# strict comparison: is reported cell viability < 0.9? input = CC1(C)CCC[C@]2(C)[C@H]3CC(=O)O[C@]3(C)CC[C@@H]12 [Sclareolide] + CCN1C(=O)N(c2c(F)c(OC)cc(OC)c2F)Cc2cnc3[nH]c(CN4CCOCC4)cc3c21
No

# strict comparison: is reported cell viability < 0.9? input = CC#CC(=O)N1CC[C@@H](n2c(=O)n(-c3ccc(Oc4ccccc4)cc3)c3c(N)ncnc32)C1 + CCN1C(=O)N(c2c(F)c(OC)cc(OC)c2F)Cc2cnc3[nH]c(CN4CCOCC4)cc3c21
Yes

# strict comparison: is reported cell viability < 0.9? input = CCc1c2c(nc3ccc(OC(=O)N4CCC(N5CCCCC5)CC4)cc13)-c1cc3c(c(=O)n1C2)COC(=O)[C@]3(O)CC [Irinotecan HCl Trihydrate] + CCN1C(=O)N(c2c(F)c(OC)cc(OC)c2F)Cc2cnc3[nH]c(CN4CCOCC4)cc3c21 [pemigatinib]
Yes

# strict comparison: is reported cell viability < 0.9? input = CC(=O)c1cc2c(o1)C(=O)c1ccccc1C2=O [Napabucasin] + CCN1C(=O)N(c2c(F)c(OC)cc(OC)c2F)Cc2cnc3[nH]c(CN4CCOCC4)cc3c21
Yes

# strict comparison: is reported cell viability < 0.9? input = O=C(CSc1nc2c(c(=O)n1-c1ccccc1)SCC2)Nc1ccc(-c2ccccc2)cn1 + CCN1C(=O)N(c2c(F)c(OC)cc(OC)c2F)Cc2cnc3[nH]c(CN4CCOCC4)cc3c21
No

# strict comparison: is reported cell viability < 0.9? input = O=C(O)C(Cc1ccccc1[N+](=O)[O-])=NNc1nc(-c2ccc(Cl)c(Cl)c2)cs1 (mixture of isomers) + CCN1C(=O)N(c2c(F)c(OC)cc(OC)c2F)Cc2cnc3[nH]c(CN4CCOCC4)cc3c21
No

# strict comparison: is reported cell viability < 0.9? input = COc1cccc(-c2cc(F)ccc2C2Cc3nc(N)nc(C)c3C(=O)N2)n1 (centres undefined) + CCN1C(=O)N(c2c(F)c(OC)cc(OC)c2F)Cc2cnc3[nH]c(CN4CCOCC4)cc3c21
Yes

# strict comparison: is reported cell viability < 0.9? input = CCOC(=O)NCCCC(=O)NCCc1ccccc1 + CCN1C(=O)N(c2c(F)c(OC)cc(OC)c2F)Cc2cnc3[nH]c(CN4CCOCC4)cc3c21
No

# strict comparison: is reported cell viability < 0.9? input = COc1ccc(-c2cc3c(C)nc(N)nc3n([C@H]3CC[C@H](OCCO)CC3)c2=O)cn1 + CCN1C(=O)N(c2c(F)c(OC)cc(OC)c2F)Cc2cnc3[nH]c(CN4CCOCC4)cc3c21
Yes

# strict comparison: is reported cell viability < 0.9? input = CC[C@@]1(O)C(=O)OCc2c1cc1n(c2=O)Cc2cc3c(CN(C)C)c(O)ccc3nc2-1 [Topotecan HCl] + CCN1C(=O)N(c2c(F)c(OC)cc(OC)c2F)Cc2cnc3[nH]c(CN4CCOCC4)cc3c21
Yes

# strict comparison: is reported cell viability < 0.9? input = O=C1c2ccccc2C(=O)c2c1ccc(O)c2O [Alizarin] + CCN1C(=O)N(c2c(F)c(OC)cc(OC)c2F)Cc2cnc3[nH]c(CN4CCOCC4)cc3c21
No

# strict comparison: is reported cell viability < 0.9? input = CCCCNc1ncc(C(=O)NCc2ccc(-n3ccnc3)cc2)c(NC2CCC(O)CC2)n1 (centres undefined) + CCN1C(=O)N(c2c(F)c(OC)cc(OC)c2F)Cc2cnc3[nH]c(CN4CCOCC4)cc3c21
Yes

# strict comparison: is reported cell viability < 0.9? input = CCNC(=O)c1[nH]nc(-c2cc(Cl)c(O)cc2O)c1-c1ccc(OC)cc1 + CCN1C(=O)N(c2c(F)c(OC)cc(OC)c2F)Cc2cnc3[nH]c(CN4CCOCC4)cc3c21
Yes

# strict comparison: is reported cell viability < 0.9? input = CCc1c2c(nc3ccc(OC(=O)N4CCC(N5CCCCC5)CC4)cc13)-c1cc3c(c(=O)n1C2)COC(=O)[C@]3(O)CC [Irinotecan] + CCN1C(=O)N(c2c(F)c(OC)cc(OC)c2F)Cc2cnc3[nH]c(CN4CCOCC4)cc3c21 [pemigatinib]
Yes

====

- Tested on: PDC-DUC18828
- ASSAY_NOTES: cell viability of compound + 1 nM pemigatinib relative to pemigatinib-only (DMSO) wells (fraction); PDC-DUC18828 is a patient-derived cholangiocarcinoma cell line; higher = less growth inhibition
- EXPERIMENTAL_SETUP: first compound 1 µM; pemigatinib concentration 1 nM; 72 h
In all, about 1,900 compounds were measured (“cell viability of compound + 1 nM pemigatinib relative to pemigatinib-only (DMSO) wells”: median about 0.95 nM, lowest 2% from about 0.22 nM on). The entries come from a sample that favours the lowest values as a whole.
READOUT_KIND: cell viability
Give the figure only, with no unit attached.

Quote cell viability reported for COc1nc(OCc2cccc(-c3ccccc3)c2C)ccc1CNCCNC(C)=O [PD-1/PD-L1 inhibitor 2] + CCN1C(=O)N(c2c(F)c(OC)cc(OC)c2F)Cc2cnc3[nH]c(CN4CCOCC4)cc3c21 [pemigatinib] please.
1

Quote cell viability reported for Cc1c(Cn2c(C)nc3c(C(=O)O)cc(N4CCOCC4)cc32)cccc1C(F)(F)F + CCN1C(=O)N(c2c(F)c(OC)cc(OC)c2F)Cc2cnc3[nH]c(CN4CCOCC4)cc3c21 [pemigatinib] please.
0.85

Quote cell viability reported for CCC[C@H](Nc1nc(-c2ccc(NC(=O)NCC)c(OC)c2)ncc1C)c1cccnc1 [CYT997 (Lexibulin)] + CCN1C(=O)N(c2c(F)c(OC)cc(OC)c2F)Cc2cnc3[nH]c(CN4CCOCC4)cc3c21 [pemigatinib] please.
0.268

Quote cell viability reported for CCC[C@H](NC(=O)[C@@H]1[C@H]2CCC[C@H]2CN1C(=O)[C@@H](NC(=O)[C@@H](NC(=O)c1cnccn1)C1CCCCC1)C(C)(C)C)C(=O)C(=O)NC1CC1 [Telaprevir (VX-950)] + CCN1C(=O)N(c2c(F)c(OC)cc(OC)c2F)Cc2cnc3[nH]c(CN4CCOCC4)cc3c21 [pemigatinib] please.
1.03

Quote cell viability reported for CN(C)CCCCC(=O)Nc1ccc(NC(=S)NC(=O)c2ccc(C(C)(C)C)cc2)cc1 [Tenovin-6] + CCN1C(=O)N(c2c(F)c(OC)cc(OC)c2F)Cc2cnc3[nH]c(CN4CCOCC4)cc3c21 [pemigatinib] please.
0.977

Quote cell viability reported for COc1ccc(C2CC(=O)c3c(O)cc(OC4OC(COC5OC(C)C(O)C(O)C5O)C(O)C(O)C4O)cc3O2)cc1OC (stereo not drawn) [Methyl-Hesperidin] + CCN1C(=O)N(c2c(F)c(OC)cc(OC)c2F)Cc2cnc3[nH]c(CN4CCOCC4)cc3c21 [pemigatinib] please.
0.932

Quote cell viability reported for C[C@H]1O[C@@H](O[C@H]2[C@@H](O)C[C@H](O[C@H]3[C@@H](O)C[C@H](O[C@H]4CC[C@@]5(C)[C@H](CC[C@@H]6[C@@H]5C[C@@H](O)[C@]5(C)[C@@H](C7=CC(=O)OC7)CC[C@]65O)C4)O[C@@H]3C)O[C@@H]2C)C[C@H](O)[C@@H]1O [Digoxin] + CCN1C(=O)N(c2c(F)c(OC)cc(OC)c2F)Cc2cnc3[nH]c(CN4CCOCC4)cc3c21 [pemigatinib] please.
0.135

Quote cell viability reported for COCCOc1nc(-c2ccc(Cl)c(Cl)c2)n(-c2ccc(NC(=O)CCl)cc2)n1 [MI-2 (MALT1 inhibitor)] + CCN1C(=O)N(c2c(F)c(OC)cc(OC)c2F)Cc2cnc3[nH]c(CN4CCOCC4)cc3c21 [pemigatinib] please.
0.802

Quote cell viability reported for CC(C)n1nc(-c2ccc3oc(N)nc3c2)c2c(N)ncnc21 + CCN1C(=O)N(c2c(F)c(OC)cc(OC)c2F)Cc2cnc3[nH]c(CN4CCOCC4)cc3c21 [pemigatinib] please.
0.196

Quote cell viability reported for CC(C)n1nc(-c2cc3cc(O)ccc3[nH]2)c2c(N)ncnc21 + CCN1C(=O)N(c2c(F)c(OC)cc(OC)c2F)Cc2cnc3[nH]c(CN4CCOCC4)cc3c21 [pemigatinib] please.
0.315

Quote cell viability reported for O=CN1CC/C(=C/c2ccc3c(c2)OCO3)C1=O + CCN1C(=O)N(c2c(F)c(OC)cc(OC)c2F)Cc2cnc3[nH]c(CN4CCOCC4)cc3c21 [pemigatinib] please.
0.873

Quote cell viability reported for Clc1ccc(NN=C(c2ccccc2)c2ccccn2)nc1 + CCN1C(=O)N(c2c(F)c(OC)cc(OC)c2F)Cc2cnc3[nH]c(CN4CCOCC4)cc3c21 [pemigatinib] please.
0.33

Quote cell viability reported for CNC(=O)c1ccccc1Oc1nc(Nc2cc(OC)c(OC)c(OC)c2)ncc1Br + CCN1C(=O)N(c2c(F)c(OC)cc(OC)c2F)Cc2cnc3[nH]c(CN4CCOCC4)cc3c21 [pemigatinib] please.
0.906

Quote cell viability reported for NC(=O)Nc1sc(-c2ccc(F)cc2)cc1C(N)=O + CCN1C(=O)N(c2c(F)c(OC)cc(OC)c2F)Cc2cnc3[nH]c(CN4CCOCC4)cc3c21 [pemigatinib] please.
0.85

Quote cell viability reported for COC(=O)[C@H](Cc1ccccc1)NC(=O)[C@@H](N)CC(=O)O [Aspartame] + CCN1C(=O)N(c2c(F)c(OC)cc(OC)c2F)Cc2cnc3[nH]c(CN4CCOCC4)cc3c21 [pemigatinib] please.
1.01

Quote cell viability reported for Cc1cc(C(C)Nc2ccccc2)c2nc(N3CCOCC3)cc(=O)n2c1 (stereo not drawn) + CCN1C(=O)N(c2c(F)c(OC)cc(OC)c2F)Cc2cnc3[nH]c(CN4CCOCC4)cc3c21 [pemigatinib] please.
0.86

Quote cell viability reported for O=C(NC1CCNCC1)c1n[nH]cc1NC(=O)c1c(Cl)cccc1Cl + CCN1C(=O)N(c2c(F)c(OC)cc(OC)c2F)Cc2cnc3[nH]c(CN4CCOCC4)cc3c21 [pemigatinib] please.
0.435

Quote cell viability reported for CC(C)(C)[N+]([O-])=Cc1ccc(S(=O)(=O)O)cc1S(=O)(=O)O + CCN1C(=O)N(c2c(F)c(OC)cc(OC)c2F)Cc2cnc3[nH]c(CN4CCOCC4)cc3c21 [pemigatinib] please.
0.904
